Target: human amylin receptor 1 (hAMY1R): human calcitonin receptor co-expressed with human RAMP1 in UMUC3 cells (human, UniProt P30988 25-474; O60894 27-148)
Sequence (P30988 25-474, chain 1 of 2): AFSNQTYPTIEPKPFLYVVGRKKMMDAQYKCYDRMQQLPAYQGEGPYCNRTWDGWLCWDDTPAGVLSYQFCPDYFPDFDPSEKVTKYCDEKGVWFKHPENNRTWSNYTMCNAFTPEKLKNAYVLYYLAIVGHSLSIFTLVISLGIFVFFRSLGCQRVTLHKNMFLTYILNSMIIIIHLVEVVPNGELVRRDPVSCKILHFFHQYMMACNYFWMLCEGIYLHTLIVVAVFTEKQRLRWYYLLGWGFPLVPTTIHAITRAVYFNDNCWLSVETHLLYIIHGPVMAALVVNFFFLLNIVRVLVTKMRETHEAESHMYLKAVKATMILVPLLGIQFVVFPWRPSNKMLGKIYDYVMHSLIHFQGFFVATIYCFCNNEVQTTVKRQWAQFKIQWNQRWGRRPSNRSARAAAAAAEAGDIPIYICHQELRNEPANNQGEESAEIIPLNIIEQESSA
Sequence (O60894 27-148, chain 2 of 2): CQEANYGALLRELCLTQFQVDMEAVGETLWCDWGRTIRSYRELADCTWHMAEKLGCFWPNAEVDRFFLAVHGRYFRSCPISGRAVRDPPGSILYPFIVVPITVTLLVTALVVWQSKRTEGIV
Assay: cell-based or functional assay
Numbered stars: 1 amine (or outer) side, 2 acyl side, 3 side chain; on linkers, the order of the positions; unused ones are H or OH. Bridge positions count the residues as written; N and C are the ends. Square brackets hold non-standard residues; d marks the D form. Side chains are listed from the residue outwards. Ends that are not written are not given here. * marks the point of attachment. C20 diacid = O=C(O)CCCCCCCCCCCCCCCCCCC(=O)*; γGlu = O=C(O)[C@H](CCC(=O)[*:2])N[*:1]; αMeF = C[C@](N)(Cc1ccccc1)C(=O)O; NMeD = CN[C@@H](CC(=O)O)C(=O)O; NMeN = CN[C@@H](CC(N)=O)C(=O)O; αMeL = CC(C)C[C@](C)(N)C(=O)O; Orn = NCCC[C@H](N)C(=O)O; AEEA = NCCOCCOCC(=O)O; CH2 = C([*:1])[*:2]
MEASUREMENT NAME: hAMYIR cAMP EC50 (nM)

[γGlu]CGTATCATG[Orn]LAEFLVRSSNNFGPK([γGlu-γGlu-C20 diacid])LPPTEVGSNTY-NH2 (bridge 2-7 via CH2) [Compound XIII]; 0.078
[γGlu]CNTATCATQ[Orn]LAEFLVRSSNNFGPK([AEEA-AEEA-γGlu-C20 diacid])LPPTEVGSNTY-NH2 (bridge 2-7 via CH2) [Compound XII]; 0.113
K([γGlu-γGlu-C20 diacid])CETATCATG[Orn][αMeL]AEFLVRSSHNFGPILPPTEVGSNTY-NH2 (bridge 2-7 via CH2, Acylated form of Compound VII) [Compound VIII]; 0.107
[γGlu]CNTATCATG[Orn]LAE[αMeF]LVRSSN[NMeD]FGPK([γGlu-γGlu-C20 diacid])LPPTEVGSNTY-NH2 (bridge 2-7 via CH2, Acylated form of Compound III) [Compound IV]; 0.107
[γGlu]CNTATCATGKLAEFLVRSSNNFGPK([AEEA-AEEA-γGlu-C20 diacid])LPPTEVGSNTY-NH2 (bridge 2-7 via CH2) [Compound IX]; 0.132
[γGlu]CNTATCATG[Orn]LAE[αMeF]LVRSSN[NMeN]FGPKLPPTEVGSNTY-NH2 (bridge 2-7 via CH2) [Compound I]; 0.133
[γGlu]CNTATCATG[Orn]LAE[αMeF]LVRSSN[NMeN]FGPK([γGlu-γGlu-C20 diacid])LPPTEVGSNTY-NH2 (bridge 2-7 via CH2, Acylated form of Compound I) [Compound II]; 0.075

A. K([γGlu-γGlu-C20 diacid])CETATCATG[Orn]LAE[αMeF]LVRSSN[NMeD]FGPILPPTEVGSNTY-NH2 (bridge 2-7 via CH2, Acylated form of Compound V) [Compound VI]
B. [γGlu]CNTATCATG[Orn]LAE[αMeF]LVRSSN[NMeD]FGPKLPPTEVGSNTY-NH2 (bridge 2-7 via CH2) [Compound III]
Larger number for hAMYIR cAMP EC50: A , or B ? API: response body contains the label of the selected item.
B
(B: 0.156 nM, A: 0.107 nM)
